tested on: YANK3; construct: gene STK32C; settings: concentration: 1 μM, replicates: in singlicate; n = 1;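 further: KINOMEscan kinase panel screen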
Exercise: state measured %Inh for each of the compounds provided.
Give bare numbers, in %.

Example cases with answers are listed next.
CC(C)(C)c1ccc2nccc(Nc3cccc(O)c3)c2c1 :: 0
Cl.Cl.NCC(C(=O)Nc1cc(Br)c(-c2ccnc3[nH]ccc23)s1)c1ccccc1 (centres unmarked) :: 0
FC(F)(F)c1ccc(/C=C/c2cncnc2Nc2ccc3[nH]c(Cc4ccccc4)nc3c2)cc1 :: 0

Provide reported %Inh for each item, in the same order as listed.
1. COc1ccc(-c2coc3ccc(-c4nnc(SCc5ccc(OC)c(C(F)(F)F)c5)o4)cc23)cc1
2. CC(=O)Nc1nc2cnc(Nc3cc(NC(=O)c4cccc(C5(C#N)CC5)c4Cl)ccc3C)nc2s1
3. O=C(Nc1cccc(-c2nn3ncccc3c2-c2ccnc(Nc3ccccc3)n2)c1)c1c(F)cccc1F
4. COc1cccc(C(=O)Nc2cccc(Oc3ccc4nc(NC(=O)C5CC5)cn4n3)c2)c1
5. CN(C)Cc1ccc(-c2ccc3c(Nc4ccc(Oc5ccccn5)cc4)ccnc3c2)o1

Response:
0
25
18
0
20
